B1: ZNF263 (parent)
chain: KPYKCTLCGENFSHRSNLIRHQRI

variants of: B1; assay: protein stability index of a GFP-peptide fusion (GPS, HEK-293T) (PSI 1-6); higher = more stable; conditions: c terminus: a fixed tail appended;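 also: lentivirally expressed fusions sorted by FACS into six bins by GFP to DsRed ratio, PSI derived from sequencing read proportions per bin multiplied by bin number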
measured quantity: protein stability index
Please respond with just the number, no unit label.

Consider the reported protein stability index for these variants:
>  <sequence text>
KPYWCTLCGENFSHRSNLIRHQRI

>  <measured quantity>
protein stability index

>  <result>
2.35

$$$$
>  <sequence text>
KPYKCTLCGENFSHRSGLIRHQRI

>  <measured quantity>
protein stability index

>  <result>
3.16

$$$$
>  <sequence text>
KPYKCTLCGENFSHRSNLIRHARI

>  <measured quantity>
protein stability index

>  <result>
2.49

$$$$
>  <sequence text>
KPYKCTLCGENFSHRSNLIRHQDI

>  <measured quantity>
protein stability index

>  <result>
2.73

$$$$
>  <sequence text>
KPWKCTLCGENFSHRSNLIRHQRI

>  <measured quantity>
protein stability index

>  <result>
2.42

$$$$
>  <sequence text>
KPYKCTWCGENFSHRSNLIRHQRI

>  <measured quantity>
protein stability index

>  <result>
2.69

$$$$

**Q:** Identify protein stability index associated with the variant `KPYKCTLCGENFSHRSNQIRHQRI`
**A:** 2.42

**Q:** Identify protein stability index associated with the variant `NPYKCTLCGENFSHRSNLIRHQRI`
**A:** 2.12

**Q:** Identify protein stability index associated with the variant `KPYKCTLCGENFSWRSNLIRHQRI`
**A:** 1.43

**Q:** Identify protein stability index associated with the variant `KPYKITLCGENFSHRSNLIRHQRI`
**A:** 1.75

**Q:** Identify protein stability index associated with the variant `KPYKCTLCGENFSHRSNLIRHRRI`
**A:** 3.17

**Q:** Identify protein stability index associated with the variant `KPYKCTPCGENFSHRSNLIRHQRI`
**A:** 1.69

**Q:** Identify protein stability index associated with the variant `KPYKFTLCGENFSHRSNLIRHQRI`
**A:** 1.45

**Q:** Identify protein stability index associated with the variant `KPYKCTLCGENFSHRSNLIRHQQI`
**A:** 2.34

**Q:** Identify protein stability index associated with the variant `KPYKCTLCGENFDHRSNLIRHQRI`
**A:** 2.12

Origin of measurements: the supplement of paper PMC10567573
